# System: Leishmania donovani
# ASSAY_NOTES: Antileishmanial activity against Leishmania donovani MHOM/ET/67/HU3 axenic promastigotes assessed as parasite growth inhibition after 72 hrs by resorufin dye based fluorometric analysis
# Type: functional, organism-based
# CONDITIONS: MHOM/ET/67/HU3, 72 h
pIC50: −log10 of the molar value.
QUANTITY_KIND: pIC50

[[record]]
compound = "CCCCCCCCCCCCCCCCOP(=O)([O-])OCC[N+](C)(C)C [MILTEFOSINE]"
subject_of_test = "Leishmania donovani"
measured = 5.30

[[record]]
compound = "CC[C@H](O[C@H]1C[C@@](C)(O)[C@H](O[C@H]2CC[C@H](OC(=O)[C@H](C)[C@H](O)c3ccc4c(c3)C(=O)C=C(C)C4=O)[C@@H](C)O2)[C@H](C)O1)[C@H](C)[C@H](O)[C@@H](C)[C@H](O)[C@H](C)[C@H]1OC(=O)/C=C/[C@H](C)[C@H](O)C[C@H](O)CCC[C@@H](O)CC[C@@H](C)[C@H](O)C(=O)[C@@]2(O)C[C@@H](O)C[C@@H](C[C@@H](O)C[C@H](O)C[C@H](O)CCC[C@H](O)[C@@H]3O[C@H]3[C@@H]1C)O2"
subject_of_test = "Leishmania donovani"
measured = 7.47

[[record]]
compound = "CC[C@H](O[C@H]1C[C@@](C)(O)[C@H](O[C@H]2CC[C@H](OC(=O)[C@H](C)[C@H](O)c3ccc4c(c3)C(=O)C=C(C)C4=O)[C@@H](C)O2)[C@H](C)O1)[C@H](C)[C@H](O)[C@@H](C)[C@H](O)[C@H](C)[C@H]1OC(=O)/C=C/[C@H](C)[C@H](O)C[C@H](O)CCC[C@@H](O)CC[C@@H](C)[C@H](O)C(=O)[C@@]2(O)C[C@@H](O)C[C@@H](C[C@@H](O)C[C@H](O)C[C@H](O)CCC[C@H](O)/C=C/[C@@H]1C)O2"
subject_of_test = "Leishmania donovani"
measured = 6.93

[[record]]
compound = "CC[C@H](O[C@H]1C[C@@](C)(O)[C@H](O[C@H]2CC[C@H](OC(=O)[C@H](C)[C@H](O)c3ccc4c(c3)C(=O)C=C(C)C4=O)[C@@H](C)O2)[C@H](C)O1)[C@H](C)[C@H](O)[C@@H](C)[C@H](O)[C@H](C)[C@H]1OC(=O)/C=C/[C@H](C)[C@H](O)C[C@H](O)CCC[C@@H](O)CC[C@@H](C)[C@H](O)C(=O)[C@]2(O)O[C@H](C[C@@H](O)C[C@H](O)C[C@H](O)CCC[C@H](O)[C@@H]3O[C@H]3[C@@H]1C)C[C@H](O)[C@H]2O"
subject_of_test = "Leishmania donovani"
measured = 7.34


====

A collection of compounds and their measured selectivity ratio at 120 h
# ASSAY_NOTES: Selectivity index, ratio of CC50 for human THP1 cells to IC50 for antileishmanial activity against Leishmania donovani MHOM/ET/67/HU3 amastigotes infected in human THP1 cells after 120 hrs
# Format: toxicity, cell-based
# CONDITIONS: read-out: Ratio CC50/IC50
QUANTITY_KIND: selectivity ratio at 120 h

[[record]]
compound = "CC[C@H](O[C@H]1C[C@@](C)(O)[C@H](O[C@H]2CC[C@H](OC(=O)[C@H](C)[C@H](O)c3ccc4c(c3)C(=O)C=C(C)C4=O)[C@@H](C)O2)[C@H](C)O1)[C@H](C)[C@H](O)[C@@H](C)[C@H](O)[C@H](C)[C@H]1OC(=O)/C=C/[C@H](C)[C@H](O)C[C@H](O)CCC[C@@H](O)CC[C@@H](C)[C@H](O)C(=O)[C@]2(O)O[C@H](C[C@@H](O)C[C@H](O)C[C@H](O)CCC[C@H](O)[C@@H]3O[C@H]3[C@@H]1C)C[C@H](O)[C@H]2O"
measured = 83.2

[[record]]
compound = "CCCCCCCCCCCCCCCCOP(=O)([O-])OCC[N+](C)(C)C [MILTEFOSINE]"
measured = 11.4

[[record]]
compound = "CC[C@H](O[C@H]1C[C@@](C)(O)[C@H](O[C@H]2CC[C@H](OC(=O)[C@H](C)[C@H](O)c3ccc4c(c3)C(=O)C=C(C)C4=O)[C@@H](C)O2)[C@H](C)O1)[C@H](C)[C@H](O)[C@@H](C)[C@H](O)[C@H](C)[C@H]1OC(=O)/C=C/[C@H](C)[C@H](O)C[C@H](O)CCC[C@@H](O)CC[C@@H](C)[C@H](O)C(=O)[C@@]2(O)C[C@@H](O)C[C@@H](C[C@@H](O)C[C@H](O)C[C@H](O)CCC[C@H](O)/C=C/[C@@H]1C)O2"
measured = 4.94

[[record]]
compound = "CC[C@H](O[C@H]1C[C@@](C)(O)[C@H](O[C@H]2CC[C@H](OC(=O)[C@H](C)[C@H](O)c3ccc4c(c3)C(=O)C=C(C)C4=O)[C@@H](C)O2)[C@H](C)O1)[C@H](C)[C@H](O)[C@@H](C)[C@H](O)[C@H](C)[C@H]1OC(=O)/C=C/[C@H](C)[C@H](O)C[C@H](O)CCC[C@@H](O)CC[C@@H](C)[C@H](O)C(=O)[C@@]2(O)C[C@@H](O)C[C@@H](C[C@@H](O)C[C@H](O)C[C@H](O)CCC[C@H](O)[C@@H]3O[C@H]3[C@@H]1C)O2"
measured = 70.3

